biological target: Cannabinoid receptor 1 (Homo sapiens, UniProt P21554); experiment: Antagonist activity at recombinant human CB1 receptor expressed in HEK293 cell membranes assessed as inhibition of CP55940-induced [35S]GTPgammaS binding preincubated for 1 hr followed by CP55940 addition and subsequent incubation with [35S]GTPgammaS measured after 30 mins by scintillation spectrometry; assay type: functional; conditions: read-out: IC50
Sequence (P21554 whole entry): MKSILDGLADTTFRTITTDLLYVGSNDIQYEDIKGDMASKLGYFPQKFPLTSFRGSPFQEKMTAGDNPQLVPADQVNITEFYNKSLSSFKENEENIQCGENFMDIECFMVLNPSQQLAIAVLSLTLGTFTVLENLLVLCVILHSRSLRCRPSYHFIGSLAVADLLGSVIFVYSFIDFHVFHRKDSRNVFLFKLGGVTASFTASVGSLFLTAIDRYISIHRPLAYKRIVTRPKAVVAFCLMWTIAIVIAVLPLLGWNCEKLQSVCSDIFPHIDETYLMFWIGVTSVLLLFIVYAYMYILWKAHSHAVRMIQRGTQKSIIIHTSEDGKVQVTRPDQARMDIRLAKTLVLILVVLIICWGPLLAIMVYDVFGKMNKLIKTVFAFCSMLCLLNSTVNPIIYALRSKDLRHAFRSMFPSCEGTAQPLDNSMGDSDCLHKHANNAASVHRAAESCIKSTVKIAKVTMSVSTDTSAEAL
propertyLabel: pIC50
Worth noting: pIC50 values are minus log10 of concentrations stated in mol/L.

compound: Cc1c(C(=O)NN2CCCCC2)nc(-c2ccc(Cl)cc2Cl)n1-c1ccc(OS(=O)(=O)CCCC(F)(F)F)cc1
reported: 8.92

compound: Cc1c(C(=O)N[C@H]2CCCC[C@H]2N)nc(-c2ccc(Cl)cc2Cl)n1-c1ccc(OS(=O)(=O)CCC(F)(F)F)cc1 (racemic)
reported: 8.15

compound: Cc1c(C(=O)Nc2ccc(C(F)(F)F)nc2)nc(-c2ccc(Cl)cc2Cl)n1-c1ccc(OS(=O)(=O)CCC(F)(F)F)cc1
reported: 8.66

compound: Cc1ccc(NC(=O)c2nc(-c3ccc(Cl)cc3Cl)n(-c3ccc(OS(=O)(=O)CCC(F)(F)F)cc3)c2C)nc1
reported: 8.77

compound: Cc1c(C(=O)N[C@H]2CCC[C@H](O)C2)nc(-c2ccc(Cl)cc2Cl)n1-c1ccc(OS(=O)(=O)CCC(F)(F)F)cc1 (racemic)
reported: 8.96

compound: Cc1c(C(=O)NN2CCCCC2)nc(-c2ccc(Cl)cc2Cl)n1-c1ccc(OS(=O)(=O)CCC(F)(F)F)cc1
reported: 8.96

compound: CCCCS(=O)(=O)Oc1ccc(-n2c(-c3ccc(Cl)cc3Cl)nc(C(=O)NN3CCCCC3)c2C)cc1
reported: 8.89

compound: Cc1c(C(=O)NN2CCCCC2)nc(-c2ccc(Cl)cc2Cl)n1-c1ccc(OCCCC(F)(F)F)cc1
reported: 8.92

compound: Cc1c(C(=O)N[C@@H]2CCCC[C@@H]2O)nc(-c2ccc(Cl)cc2Cl)n1-c1ccc(OS(=O)(=O)CCC(F)(F)F)cc1
reported: 8.74

compound: Cc1c(C(=O)Nc2ccc(OC(F)(F)F)cc2)nc(-c2ccc(Cl)cc2Cl)n1-c1ccc(OS(=O)(=O)CCC(F)(F)F)cc1
reported: 9.18

Request: What value of pIC50 has been recorded for this entry: Cc1c(C(=O)NC2CCC(O)CC2)nc(-c2ccc(Cl)cc2Cl)n1-c1ccc(OS(=O)(=O)CCC(F)(F)F)cc1 (mixture of isomers)
Response: 8.42

###

target: Cannabinoid receptor 1 (Homo sapiens, UniProt P21554); assay: Displacement of [3H]CP55940 from recombinant human CB1 receptor expressed in beta-galactosidase expressing CHOK1 cell membranes after 60 mins by scintillation spectrometry; conditions: read-out: Ki
propertyLabel: pKi
Lab note — pKi values are minus log10 of concentrations in M.

Please review the entries below; each comes with its answer.
molecule: Cc1c(C(=O)Nc2ccc(C(F)(F)F)nc2)nc(-c2ccc(Cl)cc2Cl)n1-c1ccc(OS(=O)(=O)CCC(F)(F)F)cc1
targetSystem: Cannabinoid receptor 1 (Homo sapiens, UniProt P21554)
pKi: 9.51
--
molecule: Cc1c(C(=O)NN2CCCCC2)nc(-c2ccc(Cl)cc2Cl)n1-c1ccc(OS(=O)(=O)CCCF)cc1
targetSystem: Cannabinoid receptor 1 (Homo sapiens, UniProt P21554)
pKi: 9.49
--
molecule: Cc1c(C(=O)Nc2ccc(OC(F)(F)F)cc2)nc(-c2ccc(Cl)cc2Cl)n1-c1ccc(OS(=O)(=O)CCC(F)(F)F)cc1
targetSystem: Cannabinoid receptor 1 (Homo sapiens, UniProt P21554)
pKi: 9.66

Request: # lookup: pKi of Cc1c(C(=O)Nc2ccc(C(F)(F)F)cn2)nc(-c2ccc(Cl)cc2Cl)n1-c1ccc(OS(=O)(=O)CCC(F)(F)F)cc1
Response: 9.72

Request: Proceed to Cc1c(C(=O)NN2CCCCC2)nc(-c2ccc(Cl)cc2Cl)n1-c1ccc(OCCCF)cc1
Response: 9.47

Request: And the next one, Cc1c(C(=O)N[C@H]2CCC[C@H](O)C2)nc(-c2ccc(Cl)cc2Cl)n1-c1ccc(OS(=O)(=O)CCC(F)(F)F)cc1 (racemic) ?
Response: 10.00

Request: Please do the same for Cc1c(C(=O)Nc2ccc(F)nc2)nc(-c2ccc(Cl)cc2Cl)n1-c1ccc(OS(=O)(=O)CCC(F)(F)F)cc1 as well.
Response: 9.89

Request: Next entry: Cc1ccc(NC(=O)c2nc(-c3ccc(Cl)cc3Cl)n(-c3ccc(OS(=O)(=O)CCC(F)(F)F)cc3)c2C)nc1
Response: 9.85

Request: Cc1c(C(=O)NN2CCCCC2)nc(-c2ccc(Cl)cc2Cl)n1-c1ccc(OS(=O)(=O)CCC(F)(F)F)cc1 ?
Response: 9.96

Request: Now consider Cc1c(C(=O)NC2CCC(O)CC2)nc(-c2ccc(Cl)cc2Cl)n1-c1ccc(OS(=O)(=O)CCC(F)(F)F)cc1 (mixture of isomers) .
Response: 9.43

Request: CCCS(=O)(=O)Oc1ccc(-n2c(-c3ccc(Cl)cc3Cl)nc(C(=O)NN3CCCCC3)c2C)cc1 , same question.
Response: 9.55

Request: Cc1c(C(=O)NN2CCCCC2)nc(-c2ccc(Cl)cc2Cl)n1-c1ccc(OS(=O)(=O)CCCC(F)(F)F)cc1 , same question.
Response: 10.21

###

biological target: Cannabinoid receptor 1 (Homo sapiens, UniProt P21554); assay: Antagonist activity at recombinant human CB1 receptor expressed in HEK293 cell membranes assessed as inhibition of CP55940-induced [35S]GTPgammaS binding preincubated for 1 hr followed by CP55940 addition and subsequent incubation with [35S]GTPgammaS measured after 30 mins by scintillation spectrometry; type: functional; settings: read-out: IC50
propertyLabel: pIC50
For clarity, pIC50 is expressed as the negative log10 of concentration in mol/L.

entrySmiles: Cc1c(C(=O)NN2CCCCC2)nc(-c2ccc(Cl)cc2Cl)n1-c1ccc(OCCC(F)(F)F)cc1
targetSystem: Cannabinoid receptor 1 (Homo sapiens, UniProt P21554)
propertyLabel: pIC50
reported: 8.25

Request: May I ask what pIC50 has been recorded for Cc1c(C(=O)NN2CCCCC2)nc(-c2ccc(Cl)cc2Cl)n1-c1ccc(OS(=O)(=O)CCCF)cc1 ?
Response: 8.51

Request: Subsequent entry: Cc1c(C(=O)NN2CCCCC2)nc(-c2ccc(Cl)cc2Cl)n1-c1ccc(OS(=O)(=O)CCC(C)(C)C)cc1
Response: 8.62

Request: Then Cc1c(C(=O)NN2CCCCC2)nc(-c2ccc(Cl)cc2Cl)n1-c1ccc(OS(=O)(=O)CCC(C)C)cc1 ?
Response: 8.89

###

target: Cannabinoid receptor 1 (Homo sapiens, UniProt P21554); assay: Displacement of [3H]CP55940 from recombinant human CB1 receptor expressed in beta-galactosidase expressing CHOK1 cell membranes after 60 mins by scintillation spectrometry; conditions: read-out: Ki
propertyLabel: pKi
The meaning of pKi here: minus log10 of the concentration in molar units.

entrySmiles: Cc1c(C(=O)NN2CCCCC2)nc(-c2ccc(Cl)cc2Cl)n1-c1ccc(OCCC(F)(F)F)cc1
targetSystem: Cannabinoid receptor 1 (Homo sapiens, UniProt P21554)
reported: 8.90
--
entrySmiles: Cc1c(C(=O)N[C@@H]2CCCC[C@@H]2O)nc(-c2ccc(Cl)cc2Cl)n1-c1ccc(OS(=O)(=O)CCC(F)(F)F)cc1
targetSystem: Cannabinoid receptor 1 (Homo sapiens, UniProt P21554)
reported: 10.57

Now take the following compound into account.
Request: Recorded pKi for Cc1c(C(=O)N[C@@H]2CCCC[C@H]2O)nc(-c2ccc(Cl)cc2Cl)n1-c1ccc(OS(=O)(=O)CCC(F)(F)F)cc1 , please?
Response: 9.52
